From: patent US7671052B2

tested_on: hCB2 (Homo sapiens)
Construct: expressed in transfected cells; host or cells: CHO-K1 (Chinese hamster ovary), stably transfected; membrane preparation
Sequence (P34972 whole entry): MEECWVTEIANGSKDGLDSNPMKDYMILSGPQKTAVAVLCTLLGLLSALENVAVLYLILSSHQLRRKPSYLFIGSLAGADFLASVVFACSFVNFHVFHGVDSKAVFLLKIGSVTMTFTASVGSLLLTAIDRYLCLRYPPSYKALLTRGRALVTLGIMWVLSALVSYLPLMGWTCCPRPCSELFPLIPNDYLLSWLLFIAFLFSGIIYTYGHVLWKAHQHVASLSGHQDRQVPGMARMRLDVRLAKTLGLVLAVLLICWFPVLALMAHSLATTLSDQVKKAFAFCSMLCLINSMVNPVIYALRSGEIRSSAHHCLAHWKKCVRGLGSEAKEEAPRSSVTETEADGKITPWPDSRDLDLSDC
assay_overview: Inhibition of [3H]CP55940 binding to hCB2 receptor membranes
test_context: human cloned CB2 receptor; read-out: Ki(CB2)
quantity_kind: pKi
The value called pKi is obtained by taking minus log10 of the concentration in mol/L.

Task: Given CCCCOCC(C)(C)c1ccc(-c2ccccc2CNC(=O)NCC)c(O)c1 , state its recorded pKi.
Output: 9.25

---

The following are reported Ki results, target or system UniProt P21554.
Return type: number; implicit unit nM.

>>> print(df.to_string())
                                   compound  quantity_kind  display_unit  quantitative_result
0  CCCCOCC(C)(C)c1ccc(-c2ccccc2CNC(=O)NCC)c(O)c1 [Compound 12]             Ki            nM                  1.6

# evaluate next
Task: Request - read-out Ki | tested on UniProt P21554 | compound CCCCOCC(C)(C)c1ccc(-c2cccc(CNC(=O)NCCC)c2)c(O)c1 [Compound 15]
Output: 1.1

---

tested_on: hCB1 (Homo sapiens, UniProt P21554)
Construct: membrane preparation
Sequence (P21554 whole entry): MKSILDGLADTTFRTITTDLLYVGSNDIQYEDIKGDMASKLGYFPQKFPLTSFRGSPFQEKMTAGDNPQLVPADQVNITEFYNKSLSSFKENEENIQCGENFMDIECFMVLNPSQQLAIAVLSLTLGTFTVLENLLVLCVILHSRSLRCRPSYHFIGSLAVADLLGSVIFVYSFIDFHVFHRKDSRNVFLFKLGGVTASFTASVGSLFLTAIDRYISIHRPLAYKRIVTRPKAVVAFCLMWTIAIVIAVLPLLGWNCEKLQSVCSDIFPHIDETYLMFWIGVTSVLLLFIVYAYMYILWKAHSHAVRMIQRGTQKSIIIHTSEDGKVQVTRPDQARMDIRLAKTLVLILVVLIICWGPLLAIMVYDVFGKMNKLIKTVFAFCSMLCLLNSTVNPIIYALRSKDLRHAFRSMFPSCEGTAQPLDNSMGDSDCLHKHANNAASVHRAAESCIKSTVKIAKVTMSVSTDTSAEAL
assay_overview: hCB1-mediated stimulation of [35S]GTPγS binding
test_context: read-out: in vitro CB1 receptor agonist potency (EC50)
quantity_kind: EC50 (nM)
Return type: number; implicit unit nM.

In [3]: df
Out[3]:
                      smiles_representation  quantitative_result
0  CCCCOCC(C)(C)c1ccc(-c2cccc(CNC(=O)NCCC)c2)c(O)c1                 29.1

# evaluate next
Task: Given CCCCOCC(C)(C)c1ccc(-c2ccccc2CNC(=O)NCC)c(O)c1 , state its recorded EC50.
Output: 15.5

---

Test system: Male ICR mice
assay_overview: Catalepsy ring test
Assay type: in vivo, mouse
test_context: 30 mg/kg i.p., 60 or 90 minutes after dosing
quantity_kind: % catalepsy @ 30 mg/kg (%)
Return type: number; implicit unit %.

In [3]: df
Out[3]:
                                   molecule  quantitative_result
0  CCNC(=O)NCc1cccc(-c2ccc(C(C)(C)CCCCC(=O)N3CCOCC3)cc2O)c1                 3.07

Task: Given CC(C)(CCCCC(=O)N1CCOCC1)c1ccc(-c2cccc(CNS(C)(=O)=O)c2)c(O)c1 , state its recorded % catalepsy @ 30 mg/kg.
Output: 3.38

Task: Given CCNC(=O)NCc1cccc(-c2ccc(C(C)(C)COCCOC)cc2O)c1 , state its recorded % catalepsy @ 30 mg/kg.
Output: 12.21

Task: Given CCNC(=O)NCc1cccc(-c2ccc(C(C)(C)COCCC(=O)N3CCOCC3)cc2O)c1 , state its recorded % catalepsy @ 30 mg/kg.
Output: 6.65

Task: Given CC(C)(CCCCC(=O)N1CCOCC1)c1ccc(-c2cccc(CNC(=O)C3CCCO3)c2)c(O)c1 (centres unmarked) , state its recorded % catalepsy @ 30 mg/kg.
Output: 13.07

---

Test system: Male ICR mice
assay_overview: Catalepsy ring test
Assay type: in vivo, mouse
test_context: 100 mg/kg i.p., 60 or 90 minutes after dosing
Procedure: The apparatus consisted of a 5.5 centimeter ring attached to a ring stand at a height of 16 centimeters. Male ICR mice (20-25 g) were placed on the ring 60 or 90 minutes after dosing (i.p.) with test compounds or vehicle. Normal behavior for a mouse would be to walk around and investigate the ring. Catalepsy was shown when the mouse remained motionless. The amount of time (in seconds, in a 5 minute test session) the mouse spent motionless was determined. […]
quantity_kind: % catalepsy @ 100 mg/kg (%)
Return type: number; implicit unit %.

>>> print(df.to_string())
                                   compound      tested_on  quantitative_result
0  CCNC(=O)NCc1cccc(-c2ccc(C(C)(C)COCCC(=O)N3CCOCC3)cc2O)c1  Male ICR mice                18.80
1  CC(C)(CCCCC(=O)N1CCOCC1)c1ccc(-c2cccc(CNS(C)(=O)=O)c2)c(O)c1  Male ICR mice                24.65
2  CCNC(=O)NCc1cccc(-c2ccc(C(C)(C)COCCOC)cc2O)c1  Male ICR mice                47.93
3  CC(C)(CCCCC(=O)N1CCOCC1)c1ccc(-c2cccc(CNC(=O)C3CCCO3)c2)c(O)c1 (centres unmarked)  Male ICR mice                58.78

# evaluate next
Task: Request - read-out % catalepsy @ 100 mg/kg | tested on Male ICR mice | compound CCNC(=O)NCc1cccc(-c2ccc(C(C)(C)CCCCC(=O)N3CCOCC3)cc2O)c1
Output: 5.05
